Data origin: patent US20120277143A1

Biological target: T1, human IL4 (human, UniProt P05112 25-153, biotinylated in the SPR and competition assays (sites not given))
T1 construct: Peprotech #200-04, mature protein produced in E. coli; also called hIL4; Interleukin 4
T1 sequence: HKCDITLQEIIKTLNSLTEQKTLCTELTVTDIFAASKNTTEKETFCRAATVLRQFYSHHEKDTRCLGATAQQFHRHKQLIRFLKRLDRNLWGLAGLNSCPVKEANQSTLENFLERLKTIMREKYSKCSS
Experiment: SPR ProteOn, biotin-IL4 on neutravidin chip, 1:1 fit
value-type: kon (M⁻¹ s⁻¹)
Give bare numbers, in M⁻¹ s⁻¹.

[[record]]
binder = "C06_48F3 (designed binder, ankyrin repeat protein; His-tagged, IMAC-purified) DLGKKLLEAARAGQDDEVRILMANGADVNAFDDSGLTPLHLAADDGHLEIVEVLLKHGADVNAADRMGDTPLHLAAFVGHLEIVEVLLKYGADVNAVDLAGVTPLHVAAFYGHLEIVEVLLKYGADVNAQDKFGKTAFDISIDNGNEDLAEILQKLN"
observed = 872000


Pending binder:
In: Fill in reported kon for this entry: C06_26H2 (designed binder, ankyrin repeat protein; His-tagged, IMAC-purified) DLGKKLLEAARAGQDDEVRILMANGADVNAYDSSGDTPLHVAAIDGHLEIVEVLLKHGADVNASDASGDTPLHLAADFGHLKIVEVLLKHGADVNAEDMIGITPLHLAAYNGHLEIVEVLLKNGADVNASDVHGFTPLHLAAFIGHLGIVEVLLKYDADVNAQDKFGKTAFDISIDNRNEDLAEILQKLN
Out: 3.47e+06
